- Tested on: Propionibacterium acnes ATCC 6919
- experimental_protocol: MIC, agar dilution method NCCLS M11-A6, Brucella agar, anaerobic (Table 9, superscript c)
- Assay type: cell-based
- measurement_setup: ATCC 6919
Non-standard residues stand in square brackets, D forms with d. Residues, ends and D or L forms follow the SMILES beside them. *: point of attachment. Lauroyl = CCCCCCCCCCCC(=O)*; Decanoyl = CCCCCCCCCC(=O)*

molecule	MIC P. acnes [c ug/mL]
CCCCCCCCCC(=O)N[C@H](CCCNC(=N)N)C(=O)N[C@H](CO)C(=O)N[C@H](CCCNC(=N)N)C(=O)N[C@H](Cc1c[nH]c2ccccc12)C(=O)N[C@H](CCCNC(=N)N)C(=O)N[C@H](CC(=O)O)C(=O)N[C@@H](C(=O)N[C@H](C)C(=O)N[C@H](CCCNC(=N)N)C(=O)N[C@H](CC(N)=O)C(=O)N[C@H](Cc1ccccc1)C(=O)N[C@H](CC(C)C)C(=O)N[C@H](CCCNC(=N)N)C(N)=O)C(C)C [Peptide 253, Decanyl-rsrwrdvarnflr-NH2] (Decanoyl-[dR][dS][dR][dW][dR][dD][dV][dA][dR][dN][dF][dL][dR]-NH2)	2
CCCCCCCCCCCC(=O)N[C@@H](CCCNC(=N)N)C(=O)N[C@@H](CO)C(=O)N[C@@H](CCCNC(=N)N)C(=O)N[C@@H](Cc1c[nH]c2ccccc12)C(=O)N[C@@H](CCCNC(=N)N)C(=O)N[C@@H](CC(=O)O)C(=O)N[C@H](C(=O)N[C@@H](CC(C)C)C(=O)N[C@@H](CCCNC(=N)N)C(=O)N[C@@H](CC(N)=O)C(=O)N[C@@H](Cc1ccccc1)C(=O)N[C@@H](CC(C)C)C(=O)N[C@@H](CCCNC(=N)N)C(N)=O)C(C)C [Peptide 136, Lauryl-RSRWRDVLRNFLR-NH2] (Lauroyl-RSRWRDVLRNFLR-NH2)	8

---

- Tested on: Propionibacterium acnes ATCC 6919
- experimental_protocol: MIC, agar dilution method NCCLS M11-A6, Brucella agar, anaerobic (Table 9, superscript c)
- Format: cell-based
- measurement_setup: ATCC 6919
Non-standard residues stand in square brackets, D forms with d. Residues, ends and D or L forms follow the SMILES beside them. *: point of attachment. 1Nal = N[C@@H](Cc1cccc2ccccc12)C(=O)O; Lauroyl = CCCCCCCCCCCC(=O)*

molecule	target_desc	measure_unit	MIC P. acnes
CCCCCCCCCCCC(=O)N[C@@H](CCCNC(=N)N)C(=O)N[C@@H](CO)C(=O)N[C@@H](CCCNC(=N)N)C(=O)N[C@@H](Cc1cccc2ccccc12)C(=O)N[C@@H](CCCNC(=N)N)C(=O)N[C@@H](CC(=O)O)C(=O)N[C@H](C(=O)N[C@@H](C)C(=O)N[C@@H](CCCNC(=N)N)C(=O)N[C@@H](CC(N)=O)C(=O)N[C@@H](Cc1ccccc1)C(=O)N[C@@H](CCSC)C(=O)N[C@@H](CCCNC(=N)N)C(N)=O)C(C)C [Peptide 149] (Lauroyl-RSR[1Nal]RDVARNFMR-NH2)	Propionibacterium acnes ATCC 6919	c ug/mL	32
CCCCCCCCCCCC(=O)N[C@H](CO)C(=O)N[C@H](CCCNC(=N)N)C(=O)N[C@H](Cc1c[nH]c2ccccc12)C(=O)N[C@H](CCCNC(=N)N)C(=O)N[C@H](CC(=O)O)C(=O)N[C@@H](C(=O)N[C@H](C)C(=O)N[C@H](CCCNC(=N)N)C(=O)N[C@H](CC(N)=O)C(=O)N[C@H](Cc1ccccc1)C(=O)N[C@H](CC(C)C)C(=O)N[C@H](CCCNC(=N)N)C(N)=O)C(C)C [Peptide 212, Lauryl-srwrdvarnflr-NH2] (Lauroyl-[dS][dR][dW][dR][dD][dV][dA][dR][dN][dF][dL][dR]-NH2)	Propionibacterium acnes ATCC 6919	c ug/mL	2
CCCCCCCCCCCC(=O)N[C@H](CCCNC(=N)N)C(=O)N[C@H](Cc1c[nH]c2ccccc12)C(=O)N[C@H](CCCNC(=N)N)C(=O)N[C@H](C)C(=O)N[C@@H](C(=O)N[C@H](C)C(=O)N[C@H](CCCNC(=N)N)C(N)=O)C(C)C [Peptide 246, Lauryl-rwravar-NH2] (Lauroyl-[dR][dW][dR][dA][dV][dA][dR]-NH2)	Propionibacterium acnes ATCC 6919	c ug/mL	32

meta.source: patent US20050282755A1
